# System: NCTC-2544
# PROTOCOL_NOTES: Anti-inflammatory activity in IFN-gamma and histamine-stimulated human NCTC-2544 cells assessed as reduction in COX-2 protein expression by Western blot method
# Type: functional, cell-based
Active and inactive are the calls of the source. The calls are words filed in the database; no cut-off is given here.
Pick one and only one: active, inactive

For orientation, consider the following solved cases.
{"columns": ["INPUT_SMILES", "ASSIGNED_CATEGORY"],
 "data": [
  ["O=C(O)c1ccc(CN2C(=O)/C(=C/c3cccc(OCc4ccccc4)c3)SC2=S)cc1", "active"],
  ["O=C(O)c1ccc(CN2C(=O)/C(=C/c3ccc(OCc4ccccc4)cc3)SC2=S)cc1", "active"],
  ["O=C(O)c1ccc(CN2C(=O)/C(=C/c3ccc(OCCc4ccccc4)cc3)SC2=S)cc1", "active"],
  ["O=C(O)c1ccc(CN2C(=O)/C(=C/c3cccc(Oc4ccccc4)c3)S/C2=N\\c2ccc(F)cc2)cc1", "active"],
  ["O=C(O)c1ccc(CN2C(=O)/C(=C/c3cccc(OCCc4ccccc4)c3)SC2=S)cc1", "active"]
]}

What was the test verdict on O=C(O)c1ccc(CN2C(=O)/C(=C/c3cccc(Oc4ccccc4)c3)SC2=S)cc1 ?
active

What was the test verdict on O=C(O)c1ccc(CN2C(=O)/C(=C/c3ccc(Oc4ccccc4)cc3)SC2=S)cc1 ?
inactive
